Target: UniProt:O00329
Assay: HTRF PI3K biochemical assay, delta isoform
Settings: 0.3 nM enzyme, 100 uM ATP, 5 uM PIP2, form screened: Neutral
measured-metric: IC50 (nM)

Example compounds with recorded IC50:
[
  {
    "compound": "CCC(Oc1ncnc2c1nc(-c1cnn(CC)c1C)n2C)C(=O)N1CCOCC1 (racemic) [Compound 1-1]",
    "IC50 / nM": 320
  },
  {
    "compound": "CC[C@H](Nc1ncnc2c1nc(-c1cnc(C)nc1)n2CC)C(=O)N1CC[C@@H]2CCCC[C@@H]2C1 [Compound 2-20]",
    "IC50 / nM": 14
  },
  {
    "compound": "CC[C@H](Nc1ncnc2c1nc(-c1cnc(C)nc1)n2CC)C(=O)N1CC[C@H](F)C1 [Compound 2-15]",
    "IC50 / nM": 37
  }
]

[P] CC[C@H](Nc1ncnc2c1nc(-c1cnc(C)nc1)n2CC)C(=O)N1CCOC2(CC2)C1 [Compound 2-29]
[Q] CC[C@H](Nc1ccnc2c1nc(-c1ccc(C(F)(F)F)nc1)n2CC)C(=O)N1C[C@@H](C)O[C@@H](C)C1 [Compound 3-2]
// compare measured IC50 between P and Q ; output the lower one Identify your pick by its label.
Q
(Q: 6.2 nM, P: 11 nM)

----------
Biological target: PI3Kdelta (Homo sapiens (Human), UniProt O00329)
Sequence (O00329 whole entry, canonical isoform): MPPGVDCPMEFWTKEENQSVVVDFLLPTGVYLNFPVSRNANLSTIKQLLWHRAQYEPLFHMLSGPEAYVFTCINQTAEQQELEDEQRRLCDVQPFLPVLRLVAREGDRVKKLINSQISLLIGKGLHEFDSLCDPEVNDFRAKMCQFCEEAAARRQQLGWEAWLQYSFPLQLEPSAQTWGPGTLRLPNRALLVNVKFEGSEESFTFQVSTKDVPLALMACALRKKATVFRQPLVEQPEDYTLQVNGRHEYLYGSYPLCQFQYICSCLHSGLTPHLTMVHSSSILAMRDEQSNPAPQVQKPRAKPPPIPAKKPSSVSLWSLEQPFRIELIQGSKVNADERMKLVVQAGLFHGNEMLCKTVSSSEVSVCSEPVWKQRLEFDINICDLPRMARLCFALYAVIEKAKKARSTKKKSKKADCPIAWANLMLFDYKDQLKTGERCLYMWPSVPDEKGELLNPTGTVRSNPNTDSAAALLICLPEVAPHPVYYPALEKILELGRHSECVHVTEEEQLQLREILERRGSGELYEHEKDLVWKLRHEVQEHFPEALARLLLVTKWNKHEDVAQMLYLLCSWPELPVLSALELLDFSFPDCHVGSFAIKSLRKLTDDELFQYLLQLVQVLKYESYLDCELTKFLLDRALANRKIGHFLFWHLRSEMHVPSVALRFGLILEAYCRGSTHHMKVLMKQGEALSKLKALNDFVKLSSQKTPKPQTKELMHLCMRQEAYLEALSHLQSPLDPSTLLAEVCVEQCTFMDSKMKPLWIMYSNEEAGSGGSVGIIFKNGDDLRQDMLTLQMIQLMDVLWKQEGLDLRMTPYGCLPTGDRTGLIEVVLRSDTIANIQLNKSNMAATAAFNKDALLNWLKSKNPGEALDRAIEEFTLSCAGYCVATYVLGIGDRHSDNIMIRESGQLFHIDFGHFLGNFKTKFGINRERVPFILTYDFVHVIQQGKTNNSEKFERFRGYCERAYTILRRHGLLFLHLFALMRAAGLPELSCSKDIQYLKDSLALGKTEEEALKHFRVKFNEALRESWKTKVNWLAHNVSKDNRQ
Sequence (P27986 whole entry partner, canonical isoform): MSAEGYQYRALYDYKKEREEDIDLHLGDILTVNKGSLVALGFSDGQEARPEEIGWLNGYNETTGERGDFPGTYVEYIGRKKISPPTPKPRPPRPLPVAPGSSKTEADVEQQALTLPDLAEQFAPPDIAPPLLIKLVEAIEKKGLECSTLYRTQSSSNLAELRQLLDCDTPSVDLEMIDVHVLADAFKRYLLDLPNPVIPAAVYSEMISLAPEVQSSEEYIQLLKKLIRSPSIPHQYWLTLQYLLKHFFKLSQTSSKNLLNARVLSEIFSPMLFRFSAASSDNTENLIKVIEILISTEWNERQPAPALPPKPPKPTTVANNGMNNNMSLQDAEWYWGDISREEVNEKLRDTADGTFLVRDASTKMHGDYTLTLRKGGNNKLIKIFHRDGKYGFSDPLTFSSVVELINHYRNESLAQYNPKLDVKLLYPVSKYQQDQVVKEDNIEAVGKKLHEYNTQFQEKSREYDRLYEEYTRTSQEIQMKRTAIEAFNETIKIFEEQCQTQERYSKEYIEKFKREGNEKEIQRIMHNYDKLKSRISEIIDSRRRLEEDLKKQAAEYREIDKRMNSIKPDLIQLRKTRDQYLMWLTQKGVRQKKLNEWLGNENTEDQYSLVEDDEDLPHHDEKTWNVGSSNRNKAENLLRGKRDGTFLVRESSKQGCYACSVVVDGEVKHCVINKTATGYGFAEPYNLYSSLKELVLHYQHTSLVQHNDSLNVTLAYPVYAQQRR
Test: HTRF PI3K biochemical assay, delta isoform
Details: 0.3 nM enzyme, 100 uM ATP, 5 uM PIP2, form screened: Neutral
pIC50: −log10 of the molar value.
measured-metric: pIC50

[A] CC[C@H](Nc1ncnc2c1nc(-c1cnc(C)nc1)n2CC)C(=O)N1CC(C(F)F)C1
[B] CCn1c(-c2cnc(C)nc2)nc2c(N[C@H](C(=O)N3C[C@@H](C)O[C@@H](C)C3)C3CC3)ncnc21
[C] CC[C@H](Nc1ncnc2c1nc(-c1cnc(C)nc1)n2CC)C(=O)N1CCCC(OC)CC1 (mixture of isomers)
[D] CCn1c(-c2cnc(C)nc2)nc2c(NC[C@H](C)C(=O)N3C[C@@H](C)O[C@@H](C)C3)ncnc21
Quick favor: sort the compounds up above by pIC50, largest first. List labels; respect the requested ordering.
B, C, A, D
(B: 8.39, C: 7.64, A: 7.22, D: 6.60)

----------
Biological target: PI3Kdelta (Homo sapiens (Human))
Experiment: HTRF PI3K biochemical assay, delta isoform
Settings: 0.3 nM enzyme, 100 uM ATP, 5 uM PIP2, form screened: Neutral
pIC50: −log10 of the molar value.
measured-metric: pIC50

[
  {
    "compound": "CC[C@H](Nc1ncnc2c1nc(-c1cnc(C)nc1)n2CC)C(=O)N1CCOCC12CCC2 [Compound 2-27]",
    "pIC50": 7.96
  },
  {
    "compound": "CCn1c(-c2cnc(C)nc2)nc2c(N[C@H](C(=O)N3C[C@@H](C)O[C@@H](C)C3)[C@@H](C)OC)ncnc21 [Compound 2-52]",
    "pIC50": 8.43
  },
  {
    "compound": "CCn1c(-c2cnc(C)nc2)nc2c(N[C@H](C(=O)N3C[C@@H](C)O[C@@H](C)C3)C(C)(C)C)ncnc21 [Compound 2-42]",
    "pIC50": 8.28
  },
  {
    "compound": "CCn1c(-c2cnc(C)nc2)nc2c(N[C@@H](CC(C)C)C(=O)N3C[C@@H](C)O[C@@H](C)C3)ncnc21 [Compound 2-44]",
    "pIC50": 6.85
  },
  {
    "compound": "CCn1ncc(-c2nc3c(N[C@H](Cc4ccccc4)C(=O)N4CCOCC4)ncnc3n2C)c1C [Compound 2-1]",
    "pIC50": 7.82
  }
]

[I] CC[C@H](Nc1ncnc2c1nc(-c1cnc(C)nc1)n2CC)C(=O)N1CCCC(F)(F)C1 [Compound 2-12]
[II] CCC(Nc1ncnc2c1nc(-c1cnc(C)nc1)n2CC)C(=O)N1CCOCC1 (single isomer, unassigned) [Compound 1-8]
Please state the entry with greater pIC50 among I and II . Reply with the label of the item you choose.
II
(II: 8.19, I: 7.96)
